- protocol_summary: qHTS Assay for Lipid Storage Modulators in Drosophila S3 Cells;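 also: cells counted by Cell Tracker Red CMTPX staining in the red channel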
- measurement_setup: BODIPY lipid droplet fluorescence, 18-24 h, cells fed with added oleic acid; measured here: cell count max response
Among all 320,000 compounds or so, about 2,100 (0.66%) were called active. Another 53% or so got no clear call; they are omitted. What follows is part of a selection rich in actives, with near analogues and random picks from the rest.

{"molecule": "Cc1ccc2nc(SC(C)C(=O)N3CCCC3)[nH]c2c1 (stereo not drawn)", "cell number change [%]": 17.4}
{"molecule": "Cc1ccc(S(=O)(=O)c2c(C)cc(C)[nH]c2=O)c(C)c1", "cell number change [%]": 17.9}
{"molecule": "Cc1nc(-c2ccccc2)sc1-c1nc(-c2ccncc2)ncc1S(=O)(=O)c1ccccc1", "cell number change [%]": 12.5}
{"molecule": "CNCc1ccccc1OCC(=O)Nc1ccccc1", "cell number change [%]": -38.8}
{"molecule": "O=C(Nc1nc(-c2ccc(Cl)cc2)cs1)C1=COCCO1", "cell number change [%]": -17.4}
{"molecule": "O=C(C1CCN(S(=O)(=O)c2cnc[nH]2)CC1)N1CCN(Cc2ccc3c(c2)OCO3)CC1", "cell number change [%]": 1.49}
{"molecule": "Cc1cc(C)n2c(SCc3c(C)noc3C)nnc2n1", "cell number change [%]": 2.46}
{"molecule": "CCCCC(CCC(=O)O)(C(=O)OCC)c1csc(Nc2ccccc2)n1 (stereo not drawn)", "cell number change [%]": 0.537}
{"molecule": "O=C(C1CC1)N1CCN(c2ccc(O)cc2)CC1", "cell number change [%]": 22.2}
{"molecule": "CC(C)CC(NC(=O)c1ccccc1NC(=O)c1ccccc1)C(=O)O (stereo not drawn)", "cell number change [%]": -8.71}
{"molecule": "COc1ccc2oc(C(=O)OC(C)C(=O)N3CCC(C)CC3)c(C)c2c1 (stereo not drawn)", "cell number change [%]": -13.1}
{"molecule": "CCOC(=O)/C(=N\\Nc1ccc(C(C)=O)cc1)c1csc(Nc2ccccc2)n1", "cell number change [%]": 17.1}
{"molecule": "COc1ccc(CCNC(=O)C2CCN(S(=O)(=O)c3cnc[nH]3)CC2)cc1OC", "cell number change [%]": 4.12}
{"molecule": "Cc1cc(C(=O)N2CCc3c([nH]c4ccccc34)C2c2cccc(Cl)c2)nn1C (stereo not drawn)", "cell number change [%]": -10.9}
{"molecule": "Cc1ccc(NC(=O)C(C)OC(=O)COc2cccc(C(F)(F)F)c2)cc1 (stereo not drawn)", "cell number change [%]": 3.29}
{"molecule": "CC(C)(C)NC(=O)C(c1ccc(F)cc1)N(Cc1ccco1)C(=O)c1csnn1 (stereo not drawn)", "cell number change [%]": -0.0921}
{"molecule": "CC(C)c1ccc(NC2CCCN(C(=O)c3ccccc3-c3ncc[nH]3)C2)cc1 (stereo not drawn)", "cell number change [%]": -18.8}
{"molecule": "COc1ccc(N(C(C)C(=O)NC2CCCCCC2)S(C)(=O)=O)cc1 (stereo not drawn)", "cell number change [%]": 22.1}
{"molecule": "Cc1nc2nc[nH]n2c(=O)c1CCOC(=O)c1c(F)cccc1F", "cell number change [%]": -14}
{"molecule": "CC(C)=C1C2CCC1C1C(=O)N(c3nc(-c4ccc(F)cc4)c(C)s3)C(=O)C21 (stereo not drawn)", "cell number change [%]": -3.6}
{"molecule": "NS(=O)(=O)c1cc(Cl)c(NC(=O)COC(=O)c2ccccn2)c(Cl)c1", "cell number change [%]": 16.5}
{"molecule": "COc1ccccc1CCC(=O)OCC(=O)Nc1cc(C)nn1-c1ccccc1", "cell number change [%]": 9.67}
{"molecule": "COC(=O)CNC(=O)C1CCN(S(=O)(=O)c2cnc[nH]2)CC1", "cell number change [%]": -7.96}
{"molecule": "CCOc1cc(/C=C2\\SC(=S)N(N3CCOCC3)C2=O)ccc1O", "cell number change [%]": -15.1}
{"molecule": "CCCCCOCC(O)CCC(=O)NN (stereo not drawn)", "cell number change [%]": -19}
{"molecule": "O=C(C1CCN(S(=O)(=O)N2CCOCC2)CC1)N1CCN(Cc2ccc3c(c2)OCO3)CC1", "cell number change [%]": -10.4}
{"molecule": "CCC(Sc1nc2ccc(C)cc2[nH]1)C(=O)O (stereo not drawn)", "cell number change [%]": 14.5}
{"molecule": "COc1ccc(N(CC(=O)NC2CCCC2)C(=O)Cn2nnc(-c3ccc(F)cc3)n2)cc1", "cell number change [%]": 7.89}
